This collection of values is drawn from patent US20240241135A1.

OD value reference
# tested_system: T1, recombinant human regenerating islet-derived protein 1α (REG1A) (human, UniProt P05451 23-166, limits assumed)
# T1 construct: also called recombinant human REG1A; recombinant REG1A
# T1 sequence (looked up): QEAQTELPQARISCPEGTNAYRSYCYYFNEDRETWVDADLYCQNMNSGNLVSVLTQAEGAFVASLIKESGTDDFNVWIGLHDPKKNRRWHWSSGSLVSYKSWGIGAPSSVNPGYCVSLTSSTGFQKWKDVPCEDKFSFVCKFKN
# experimental_protocol: sandwich ELISA; capture 21B11D2; REG1A 11.11 ng/mL
Express your answer in OD, writing the number without its unit.

Sample answers from the record:
binder	OD value [OD]
antibody 21B11D2 (antibody, mouse IgG2b, kappa, V domains shown, Mouse monoclonal from hybridoma, stated mouse IgG1/Kappa; Used unlabelled as capture and biotin-labelled as detection antibody; also called 21B11D2-biotin) VH: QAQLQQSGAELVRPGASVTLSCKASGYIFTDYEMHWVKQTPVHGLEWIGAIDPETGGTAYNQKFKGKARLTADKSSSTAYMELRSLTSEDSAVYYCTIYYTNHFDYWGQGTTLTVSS VL: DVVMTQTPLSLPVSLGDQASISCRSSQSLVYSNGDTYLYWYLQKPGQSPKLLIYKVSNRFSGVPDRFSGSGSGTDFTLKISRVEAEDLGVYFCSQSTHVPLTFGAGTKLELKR	0.069
antibody 11D11B11 (antibody, mouse IgG2a, kappa, V domains shown, Mouse monoclonal from hybridoma, stated mouse IgG1/Kappa; Used unlabelled as capture and biotin-labelled as detection antibody; also called 11D11B11-biotin) VH: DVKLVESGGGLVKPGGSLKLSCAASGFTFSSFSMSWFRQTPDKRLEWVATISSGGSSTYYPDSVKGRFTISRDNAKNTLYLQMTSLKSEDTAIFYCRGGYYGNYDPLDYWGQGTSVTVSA VL: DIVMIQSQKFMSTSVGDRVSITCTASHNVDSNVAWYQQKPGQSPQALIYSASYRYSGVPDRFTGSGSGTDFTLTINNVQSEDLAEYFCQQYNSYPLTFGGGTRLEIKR	0.077

stdin: Form field: reported OD value of antibody 4H8F1 (antibody, V domains shown, Mouse monoclonal from hybridoma, stated mouse IgG1/Kappa; also called 4H8F1-biotin; Antibody 1) VH: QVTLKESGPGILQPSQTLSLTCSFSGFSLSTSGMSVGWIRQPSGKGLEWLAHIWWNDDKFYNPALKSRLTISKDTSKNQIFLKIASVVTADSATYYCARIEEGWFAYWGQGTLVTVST VL: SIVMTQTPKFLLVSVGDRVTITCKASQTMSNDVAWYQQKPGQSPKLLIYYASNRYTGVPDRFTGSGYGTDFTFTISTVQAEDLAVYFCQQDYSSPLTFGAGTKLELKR
stdout: 0.073

stdin: Moving on to the next binder: antibody 12F12A10 (antibody, V domains shown, Mouse monoclonal from hybridoma, stated mouse IgG1/Kappa; also called 12F12A10-biotin; Antibody 2) VH: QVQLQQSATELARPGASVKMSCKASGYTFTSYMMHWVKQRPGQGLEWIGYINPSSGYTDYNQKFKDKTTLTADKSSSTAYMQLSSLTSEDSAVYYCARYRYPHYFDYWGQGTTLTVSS VL: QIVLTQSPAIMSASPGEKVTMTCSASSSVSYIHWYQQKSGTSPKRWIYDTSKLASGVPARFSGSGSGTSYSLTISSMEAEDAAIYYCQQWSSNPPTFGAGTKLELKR
stdout: 4.23
